Each record here notes measured plant injury at 125 g/ha.
System: corn (Zea mays)
test method notes: Test A postemergence
Assay type: in vivo
particulars: Zea mays, post-emergence, 240 h, 125 g ai/ha, postemergence, visual injury rating after approximately 10 d; read-out: Corn plant response rating (0 to 100 scale, 0 no effect, 100 complete control)
Return type: number; implicit unit %.

The examples below pair each entry with its known result.
INSERT INTO results (compound, recorded_number) VALUES
  ('COc1ccc([C@H]2CN(C)C(=O)[C@@H]2C(=O)Nc2ccccc2F)cc1OC [Compound 852]', 0),
  ('N#Cc1cccc(NC(=O)[C@H]2C(=O)NC[C@@H]2c2cccc(C(F)(F)F)c2)c1F [Compound 829]', 30),
  ('CN1C[C@H](c2cccc(C3CC3)c2)[C@@H](C(=O)Nc2ccc(F)cc2F)C1=O [Compound 818]', 40),
  ('COc1cc(C(F)(F)F)ccc1[C@H]1CN(C)C(=O)[C@@H]1C(=O)Nc1ccccc1SC [Compound 860]', 0),
  ('O=C1NC[C@H](c2ccc(F)c(OC(F)(F)C(F)(F)Br)c2)[C@H]1C(=O)Nc1cccc(F)c1F (racemic) [Compound 914]', 0);

Q: Using the record for CSc1ccccc1NC(=O)[C@H]1C(=O)N(C)C[C@@H]1c1cc(F)c(F)c(F)c1 [Compound 866] , report its plant injury at 125 g/ha.
A: 30

Q: Also, COc1cc([C@H]2CN(C)C(=O)[C@@H]2C(=O)Nc2cccc(F)c2F)cc(C(F)(F)F)c1 [Compound 856] please.
A: 80

Q: Also, CN1C[C@H](c2cccc(F)c2)[C@@H](C(=O)Nc2ccccc2C(F)(F)F)C1=O [Compound 823] please.
A: 0

Q: Also, CC(C)c1cccc([C@H]2CN(C)C(=O)[C@@H]2C(=O)Nc2ccccc2F)c1 [Compound 819] please.
A: 40
